Values were extracted from the supplement of paper PMC9112550.

shrunken log2 fold change overview
test system: Escherichia coli TOP10; assay: shrunken log2 fold change of peptide-encoding DNA abundance (4.5 h post-induction vs induction); higher = less antimicrobial activity (less host growth inhibition); conditions: time post-induction: 4.5 h; library: site-saturation at positions 5, 18, 19, 20;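 also: peptides expressed intracellularly from a pBAD plasmid library in pooled LB shake-flask culture, induced with 0.3% L-arabinose, DNA abundance read by NGS, three biological replicates, DESeq2 with apeglm shrinkage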

Here is how some sequences turned out for shrunken log2 fold change.
seq.string: RRIRIRPPRLPRPRPRPDNMPRP
shrunken log2 fold change: -0.25
//
seq.string: RRIRNRPPRLPRPRPRPRIIPRP
shrunken log2 fold change: -0.425
//
seq.string: RRIRYRPPRLPRPRPRPILAPRP
shrunken log2 fold change: -0.353

Continue with the sequence presented below.
What value of measured shrunken log2 fold change is listed for RRIRTRPPRLPRPRPRPVLWPRP ?
0.117
